meta.source: patent US11439707B2

experiment: absorption spectrum (maximum absorption wavelength, molar extinction coefficient); assay type: physicochemical
Property label: molar extinction coefficient

Sample records with molar extinction coefficient:
Molecule	molar extinction coefficient
COCCOCCC(=O)OCCOCCNc1c(NCCOCCOC(=O)CCOCCOC)c2c(=O)cc(OC)c3c4c(OC)cc(=O)c5c(O)c(OC)c6c(c(c1C=C(C)C6)c23)c54 [HC-1a-PEG1]	30,500 M^−1cm^−1
COc1c2c3c4c(c(NCCCC(=O)OCCCCCC[N+](C)(C)C)c(=O)c5c(NCCCC(=O)OCCCCCC[N+](C)(C)C)cc(OC)c(c6c(OC)cc(O)c(c1=O)c63)c54)C=C(C)C2 [HC-8c-C6-N^+]	32,500 M^−1cm^−1
COCCOCCOC(=O)C1CCCC1Nc1c(NC2CCCC2C(=O)OCCOCCOC)c2c(=O)cc(OC)c3c4c(OC)cc(=O)c5c(O)c(OC)c6c(c(c1C=C(C)C6C(C)=O)c23)c54 (centres unmarked) [HB-21a-PEG1]	31,500 M^−1cm^−1
COc1c2c3c4c(c(NCCO)c(=O)c5c(NCCO)cc(OC)c(c6c(OC)cc(O)c(c1=O)c63)c54)C=C(C)C2C(C)=O (centres unmarked) [HB-2c]	31,000 M^−1cm^−1

Let us move to another entry and its molar extinction coefficient.
molar extinction coefficient recorded for this molecule, COc1c(NCc2cccc[n+]2C)c2c(=O)cc(OC)c3c4c(OC)cc(=O)c5c(O)c(NCc6cccc[n+]6C)c6c(c(c1C(C(C)=O)C(C)=C6)c23)c54 (centres unmarked) [HB-38b-N^+] , is 21,000 M^−1cm^−1
